Data origin, for the record: patent US20120135923A1

TARGET_ENTITY: T1, human melanocortin receptor subtype 5 (hMC5-R) (human, UniProt P33032 1-325)
T1 construct: whole, on cells; membranes of CHO-K1 cells
TEST_DESCRIPTION: [125I]-NDP-α-MSH competition, membranes
Procedure: Cellular membranes used for the in vitro receptor binding assays were obtained from transgenic CHO-K1 cells stably expressing hMC-R receptor subtypes 1, 3, 4 or 5. […] Competitive inhibition of [¹²⁵I](Tyr²)-(Nle⁴-D-Phe⁷)α-MSH ([¹²⁵I]-NDP-α-MSH, Amersham Biosciences®) binding was carried out in polypropylene 96 well plates. […] Binding data were analyzed by computer-assisted non-linear regression analysis (XL fit; IDBS).
Bridge positions count the residues as written; N and C are the ends. Square brackets hold non-standard residues; d marks the D form. Ends that are not written are not given here. 2Nal = N[C@@H](Cc1ccc2ccccc2c1)C(=O)O; d2Nal = N[C@H](Cc1ccc2ccccc2c1)C(=O)O; Bta = N[C@@H](Cc1csc2ccccc12)C(=O)O; βAla = NCCC(=O)O
Quick reference: Ki of the listed items.

BINDER	READING_UNIT	Ki
Ac-CEH[d2Nal]R[2Nal]ACPPKD[βAla]GRKRRRQRRR-NH2 (disulfide 1-8)	nM	6.23
Ac-CEH[d2Nal]R[Bta]ACPPKD[βAla]RRKRRQRRR-NH2 (disulfide 1-8) [Ac-c(Cys-Glu-His-D-2-Nal-Arg-Bal-Ala-Cys)-Pro-Pro-Lys-Asp-β-[…]NH2]	nM	15.5
GRCEH[dF]RWC-NH2 (disulfide 3-9; also: hydantoin ring from C(O) with Gly1-Arg2) [Hydantoin(C(O)-(Gly-Arg))-c(Cys-Glu-His-D-Phe-Arg-Trp-Cys)-NH2]	nM	4220
GCEH[dF]RWC-NH2 (disulfide 2-8; also: hydantoin ring from C(O) with Gly1-Cys2) [c[Hydantoin(C(O)-(Gly-Cys))-Glu-His-D-Phe-Arg-Trp-Cys]-NH2]	nM	3070
Ac-CEH[d2Nal]R[2Nal]ACPPKD[βAla]YGRRKRRQRRR-NH2 (disulfide 1-8)	nM	15.3
